System: KM12
ASSAY_NAME: NCI tumour cell line growth inhibition, 48 h
Active and inactive are the calls of the source. Rule as the data show it: active = GI50 up to about 1.1 µM and inactive = higher.
Provide the reported GI50 of each item.

INSERT INTO results (compound, tested_on, observed_property, result) VALUES
  ('[N-]=[N+]=NCC(=O)c1cnc(O)nc1O', 'KM12', 'GI50', '> 100 µM (inactive)');

Give me GI50 for each of these compounds, listed below.
1. COC(=O)[C@@H]1C[C@H]([Se]c2ccccc2)CN1S(=O)(=O)c1ccc(C)cc1
2. COc1cc([C@@H]2c3cc4c(cc3[C@@H](NCc3cccc(F)c3)C3COC(=O)[C@@H]32)OCO4)cc(OC)c1O (some centres undefined)
3. O=C([O-])Cc1ccccc1.[Na+] [SODIUM PHENYLACETATE]

68.9 µM (inactive)
7.01 µM (inactive)
773 µM (inactive)
